These data points were gathered from patent US5888994A.

Test system: sebaceous cells
method: Inhibition of human sebocyte proliferation in vitro
Format: cell-based
condition info: tested at 10^-6, 10^-7 and 10^-8 M, vs vehicle-treated culture, read-out: ED50 (amount of compound necessary to inhibit the proliferation of sebaceous cells by 50%)
reported endpoint: pIC50
Give bare numbers, as −log10 of the molar value.

# input Let me know recorded pIC50 for C=C1/C(=C\C=C2/CCC[C@]3(C)C([C@H](C)CC#CC(C)(O)C(F)(F)F)=CC[C@@H]23)C[C@@H](O)C[C@@H]1O (stereo partly shown) , thanks.
# output 9.00

====

method: Calcium liability (tolerance test in mice)
condition info: mouse, in vivo, sc, daily subcutaneous administration for 4 consecutive days, 5 day treatment period, read-out: HTD (highest tolerated dose: dose which results in zero weight gain)
Source text: Profound changes in calcium homeostasis strongly affect the weight development of the animals. This parameter was used as a primary test for tolerance. Mice (25-30 g body weight) received daily subcutaneous administrations of the vitamin D derivative for 4 consecutive days. Body weight was registered just before and at the end of a […] treatment period. The "highest tolerated dose" (HTD) is the dose which results in zero weight gain during this treatment period.
Please provide measured MTD at 120 h for the entries that follow.
Give bare numbers, in mg/kg.

Each molecule below has a recorded value; state its MTD at 120 h.
1. C=C1CC[C@H](O)C/C1=C/C=C1\CCC[C@]2(C)C([C@H](C)CC#CC(C)(O)C(F)(F)F)=CC[C@@H]12 (stereo partly shown)
2. C[C@H](CC#CC(C)(O)C(F)(F)F)C1=CC[C@H]2/C(=C/C=C3C[C@@H](O)C[C@H](O)C3)CCC[C@]12C (stereo partly shown)
3. C=C1/C(=C\C=C2/CCC[C@]3(C)C([C@H](C)CC#CC(C)(O)C(F)(F)F)=CC[C@@H]23)C[C@@H](O)C[C@@H]1F (stereo partly shown)
4. C=C1/C(=C\C=C2/CCC[C@]3(C)C([C@H](C)CC#CC(C)(O)C(F)(F)F)=CC[C@@H]23)C[C@@H](O)C[C@@H]1O (stereo partly shown)

# output
1. 0.6
2. 0.002
3. 0.02
4. 0.001
